Tested on: Renilla luciferase RNA
Assay notes: Barcoded aptazyme variant library screen: un-cleaved Renilla luciferase RNA by barcode read counts, HEK293-T cells
Type: cell-based
Assay conditions: un-cleaved Renilla luciferase RNA by barcode read counts; with 1 mM theophylline (ON) over without theophylline (OFF); HEK293-T cells; triplicate
Value kind: Fold change in RNA expression between the ON state and the OFF state

{"Molecule": "RA334 (nucleic acid, expressed or natural sequence) DNA: GCGCGTCCTGGATTCGCGGAAACGCGTACCCGGAATACCAGCATCGTCTTGATGCCCTTGGAAGTCCGGATCCAGCTGACGAGTCCCAAATAGGACGAAACGCGC", "Assay value": 0.9}
{"Molecule": "RA307 (nucleic acid, expressed or natural sequence) DNA: GCGCGTCCTGGATTCGCGGAAACGCGTACATCCAGCTGACGAGTGAGAATACCAGCATCGTCTTGATGCCCTTGGAAGTCTCCCCAAATAGGACGAAACGCGC", "Assay value": 1.0}
{"Molecule": "RA442 (nucleic acid, expressed or natural sequence) DNA: GCGCGTCCTGGATTCGCGGAAACGCGTACATCCGGAATACCAGCATCGTCTTGATGCCCTTGGAAGTCCGCAGCTGACGAGTCCCAAATAGGACGAAACGCGC", "Assay value": 0.6}
{"Molecule": "RA403 (nucleic acid, expressed or natural sequence) DNA: GCGCGTCCTCGGAATACCAGCATCGTCTTGATGCCCTTGGAAGTCCGGGATTCGCGGAAACGCGTACATCCAGCTGACGAGTCCCAAATAGGACGAAACGCGC", "Assay value": 0.7}
{"Molecule": "RA357 (nucleic acid, expressed or natural sequence) DNA: GCGCGTCCTGGATTCGCGGAAACGCGTACATCCAGCTGACGAGTCCCAAATAGGACGGGAATACCAGCATCGTCTTGATGCCCTTGGAAGTCCAAACGCGC", "Assay value": 0.8}
{"Molecule": "RA461 (nucleic acid, expressed or natural sequence) DNA: GCGCGTCCTGGATTCGCGGAAACGCGTACATCCAGGAGAATACCAGCATCGTCTTGATGCCCTTGGAAGTCTCCTGACGAGTCCCAAATAGGACGAAACGCGC", "Assay value": 0.5}
{"Molecule": "RA321 (nucleic acid, expressed or natural sequence) DNA: GCGCGTCCTGGATTCGCGGAAACGCGTACATCCAGCTAGTGATACCAGCATCGTCTTGATGCCCTTGGCAGCACTGACGAGTCCCAAATAGGACGAAACGCGC", "Assay value": 0.9}
